- Tested on: RPMI-8226
- Experiment Notes: NCI-60 SRB screening (one-dose and five-dose)
- Assay type: cell-based, human
- Reported Conditions: RPMI-8226, 10 μM, 48 h
Observable: Growth Percent (%)
Respond numerically; units are % and should not be typed.

Query :: Fill blank: measured Growth Percent of the compound C[C@H]1[C@@H]2[C@H]3CC[C@@H]4[C@@]5(C)C/C(=C\c6cccnc6)C(=O)C(C)(C)[C@@H]5CC[C@@]4(C)[C@]3(C)CC[C@]23CO[C@@]1(C)[C@@H](C(=O)/C=C/c1cccnc1)C3 is ____.
Result :: 5.06

Query :: Now consider COC(=O)[C@]12CC[C@@H](C(=O)/C=C/c3cccnc3)[C@@H]1[C@H]1CC[C@@H]3[C@@]4(C)C/C(=C\c5cccnc5)C(=O)C(C)(C)[C@@H]4CC[C@@]3(C)[C@]1(C)CC2 .
Result :: −28.73

Query :: Now consider COC(=O)[C@]12CC[C@@H](C(C)=O)[C@@H]1[C@H]1CC[C@@H]3[C@@]4(C)C/C(=C\c5cccnc5)C(=O)C(C)(C)[C@@H]4CC[C@@]3(C)[C@]1(C)CC2 .
Result :: 2.88

Query :: Now consider C[C@H]1[C@@H]2[C@H]3CC[C@@H]4[C@@]5(C)CC[C@H](O)C(C)(C)[C@@H]5CC[C@@]4(C)[C@]3(C)CC[C@]23CO[C@@]1(C)C(C(=O)/C=C/c1cccnc1)C3 (some centres unmarked) .
Result :: 9.55

Query :: Now consider C[C@H]1[C@@H]2[C@H]3CC[C@@H]4[C@@]5(C)CC[C@H](O)C(C)(C)[C@@H]5CC[C@@]4(C)[C@]3(C)CC[C@]23CO[C@@]1(C)[C@@H](C(=O)/C=C/c1ccco1)C3 .
Result :: 105.93
